read-out: Transforming growth factor beta 1 (TGFb1), TGFB1 (gene 7040); assay: BSK_KF3CT_TGFb1: BioMAP Diversity Plus: KF3CT Assay for Transforming growth factor beta 1 (TGFb1) Biomarker Activity (AID 2283072); conditions: primary human keratinocytes with fibroblasts; actives raise or lower the signal
The source made the active and inactive calls. How the source made its calls: active means hit-call score of the fitted dose curve at least 0.9, where 1 is the maximum; inactive means score below 0.9.
Outcome codes: active, inactive

Molecule	Class Name
CCCCCCCCCCCCCCCCCC[N+](C)(C)C	active
CCCCCCCCCC/C=C/C1CC(=O)OC1=O (stereo not drawn)	inactive
CCCCCCC(O)CCCCCCCCCCC(=O)OC (stereo not drawn)	inactive
Cc1cc(-n2nc3ccc(Cl)cc3n2)c(O)c(C(C)(C)C)c1	inactive
Cc1cccnc1	inactive
CCC(C)=NO	inactive
CN(C)c1ccc(C(c2ccccc2)c2ccc(N(C)C)cc2)cc1	inactive
CCCCCCCCCCC1CO1 (stereo not drawn)	active

---

experiment: TOX21_p53_BLA_p4_viability: Viability Assessment in the Tox21 HCT-116 p53 Agonism Beta-lactamase Assay, Phase 4 (AID 2283597);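 further: hits lower the luminescence signal meaning cytotoxicity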
Results filed as inconclusive are left out. Active and inactive are the calls of the source. Rule for the calls: active = hit-call score of the fitted dose curve at least 0.9, where 1 is the maximum; inconclusive = response in the unintended direction; inactive = score below 0.9.
Outcome codes: 1.0 (active), 0.0 (inactive)

Compound	Class Name
CCCN(CCC)C(=O)C(CCC(=O)OCCCN1CCN(CCOC(=O)Cc2c(C)n(C(=O)c3ccc(Cl)cc3)c3ccc(OC)cc23)CC1)NC(=O)c1ccccc1 (stereo not drawn)	0.0
Cc1ccc(O)c(C(=O)c2ccccc2)c1	0.0
Cc1c(C(=O)O)cccc1[N+](=O)[O-]	0.0
CCCc1c2oc(C(=O)O)cc(=O)c2cc2c(=O)cc(C(=O)O)n(CC)c12	0.0
CCCCCCCCCCC[C@@H](C[C@@H]1OC(=O)[C@H]1CCCCCC)OC(=O)[C@H](CC(C)C)NC=O	0.0
CN1CCN(CCCN2c3ccccc3Sc3ccc(C(F)(F)F)cc32)CC1	1.0
CCCCCCCCCCCCN(CCO)CCO	1.0
Cc1ccc(O)c2ncccc12	0.0
CC1=CC(=O)CC(C)(C)C1=O	0.0
CCCCCCOc1ccccc1C(N)=O	0.0
N#CCC(=O)O	0.0
O=C(Nc1ccc([N+](=O)[O-])cc1)Nc1ccc([N+](=O)[O-])cc1	0.0
C=CCCCCCCC=C	0.0
ClC/C=C/CCl	0.0
O=C(O)c1c(Cl)c(Cl)c(Cl)c(Cl)c1-c1c2cc(I)c(=O)c(I)c-2oc2c(I)c(O)c(I)cc12	1.0
CC(CO)(CO)C(=O)O	0.0
Cc1c(-c2ccccc2)oc2c(C(=O)OCCN3CCCCC3)cccc2c1=O	0.0
CN(C)CCc1c[nH]c2ccc(CS(=O)(=O)N3CCCC3)cc12	0.0
C[C@H](CCC(=O)O)[C@H]1CC[C@H]2[C@@H]3[C@H](O)C[C@@H]4C[C@H](O)CC[C@]4(C)[C@H]3C[C@H](O)[C@]12C	0.0
COc1ccc(C(=O)Nc2ccccc2CCC2CCCCN2C)cc1 (stereo not drawn)	0.0
COc1cc([C@@H]2c3cc4c(cc3[C@H](O)[C@H]3COC(=O)[C@H]23)OCO4)cc(OC)c1OC	0.0
[Cl-].[Cl-].[NH2-].[NH2-].[Pt+4]	0.0
CC1=C[C@H](O)CC(C)(C)[C@H]1/C=C/C(C)=C/C=C/C(C)=C/C=C/C=C(C)/C=C/C=C(C)/C=C/C1=C(C)C[C@@H](O)CC1(C)C	1.0

---

molecular target: Cellular tumor antigen p53 (Homo sapiens) (UniProt P04637); assay: TOX21_p53_BLA_p2_ratio: Tox21 HCT-116 p53 Agonism Beta-lactamase Assay, Ratio, Phase 2 (AID 2283592)
Sequence (P04637 whole entry, looked up): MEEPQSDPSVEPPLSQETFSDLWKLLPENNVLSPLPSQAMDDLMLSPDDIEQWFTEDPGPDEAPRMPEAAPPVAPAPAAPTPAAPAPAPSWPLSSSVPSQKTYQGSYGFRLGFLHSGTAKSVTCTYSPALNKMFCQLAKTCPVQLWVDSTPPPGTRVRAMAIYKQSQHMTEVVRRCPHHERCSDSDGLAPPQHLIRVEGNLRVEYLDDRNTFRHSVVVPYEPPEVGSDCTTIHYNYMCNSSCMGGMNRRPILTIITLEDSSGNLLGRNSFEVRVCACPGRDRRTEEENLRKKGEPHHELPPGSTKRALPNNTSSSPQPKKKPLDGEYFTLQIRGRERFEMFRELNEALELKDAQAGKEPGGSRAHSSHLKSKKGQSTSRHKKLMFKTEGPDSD
Records with an inconclusive call do not appear. Active and inactive are the calls of the source. The calls were made as follows: active = hit-call score of the fitted dose curve at least 0.9, where 1 is the maximum; inconclusive = response in the unintended direction; inactive = score below 0.9.
Outcome codes: active, inactive

Molecule	System Tested	Class Name
CCCCCCCCCI	Cellular tumor antigen p53 (Homo sapiens) (UniProt P04637)	inactive
CC(=O)N[C@H]1[C@H]([C@H](O)[C@H](O)CO)OC(C(=O)O)=C[C@@H]1N=C(N)N	Cellular tumor antigen p53 (Homo sapiens) (UniProt P04637)	inactive
CCn1cc(C(=O)O)c(=O)c2cc(F)c(N3CCN(C)CC3)cc21	Cellular tumor antigen p53 (Homo sapiens) (UniProt P04637)	inactive
C=C(C)C(=O)OCCCC	Cellular tumor antigen p53 (Homo sapiens) (UniProt P04637)	inactive
C=C(C)C1CCC(C)(O)CC1 (stereo not drawn)	Cellular tumor antigen p53 (Homo sapiens) (UniProt P04637)	inactive
CNCC[C@H](Oc1cccc2ccccc12)c1cccs1	Cellular tumor antigen p53 (Homo sapiens) (UniProt P04637)	active
CC(C)(C)C1(CCc2ccc(Cl)cc2)CO1 (stereo not drawn)	Cellular tumor antigen p53 (Homo sapiens) (UniProt P04637)	inactive
O=[N+]([O-])c1c(Cl)cccc1-c1c[nH]cc1Cl	Cellular tumor antigen p53 (Homo sapiens) (UniProt P04637)	inactive
COc1cc(NS(=O)(=O)c2ccc(N)cc2)nc(C)n1	Cellular tumor antigen p53 (Homo sapiens) (UniProt P04637)	inactive
Nc1[nH]c(=O)ncc1F	Cellular tumor antigen p53 (Homo sapiens) (UniProt P04637)	inactive
C[C@@H]1CC[C@H]2C(C)(C)[C@H]3C[C@@]12CC[C@@]3(C)O	Cellular tumor antigen p53 (Homo sapiens) (UniProt P04637)	inactive
CC/C=C/CCO	Cellular tumor antigen p53 (Homo sapiens) (UniProt P04637)	inactive
CO[C@@]12[C@H](COC(N)=O)C3=C(C(=O)C(C)=C(N)C3=O)N1C[C@@H]1N[C@@H]12	Cellular tumor antigen p53 (Homo sapiens) (UniProt P04637)	active

---

assay: ATG_TCF_b_cat_CIS: Attagene CIS-FACTORIAL HepG2 Assay for human T-Cell-Factor with beta-catenin (TCF/b-cat) (AID 2282965); conditions: HepG2 TCF/beta-catenin cis-reporter transcription, actives raise or lower the signal
Activity calls are given as the source filed them. Rule for the calls: active = hit-call score of the fitted dose curve at least 0.9, where 1 is the maximum; inactive = score below 0.9.
Outcome codes: y = active, n = inactive

Molecule	Class Name
CC[N+](CC)(CC(=O)Nc1c(C)cccc1C)Cc1ccccc1 (tested in a mixture with another compound)	n
CCCc1c(OCCCCc2nn[nH]n2)ccc(C(C)=O)c1O	n
CCC(=O)OCc1ccc(OC)cc1	n
CC(C)CC(=O)CC(C)CC(C)C (stereo not given)	n
CCC(C)C1N=C(C)C(C)S1 (stereo not given)	n
COC(=O)/C=C\C(=O)OC	n
CC(C)=CCOC(=O)c1ccccc1	n
NC(N)=Nc1nc(CSCCC(N)=NS(N)(=O)=O)cs1	n
CCc1cc(C(N)=S)ccn1	n
O=C(O)/C=C\C(=O)O	n
CC(C)n1c(/C=C/[C@@H](O)C[C@@H](O)CC(=O)O)c(-c2ccc(F)cc2)c2ccccc21	n
C[Si](C)(C)O[Si](C)(C)O[Si](C)(C)C	n
C=CCOCC(CC)(CO)COCC=C	n
c1cc(N(CC2CO2)CC2CO2)ccc1Cc1ccc(N(CC2CO2)CC2CO2)cc1 (stereo not given)	y
c1cc[c]([Bi]([c]2ccccc2)[c]2ccccc2)cc1	n
CC(C)CC(=O)CC(C)C	n
CO[Si](CCCNCCN)(OC)OC	n
CCCCCCCC#N	n
CCCCNC(N)=O	n
O=C(O)c1nc(Cl)c(Cl)c(Cl)c1Cl	n
C1=CCC=C1	n
COc1c2occc2cc2ccc(=O)oc12	n
O=C(O)c1ccccc1C(=O)O	n
Cc1cc(-n2nc3ccc(Cl)cc3n2)c(O)c(C(C)(C)C)c1	n
NCc1ccccc1	n
CCCCCCOC(=O)CCCCCCCC(=O)OCCCCCC	n
CCCCCCCCCCC1CO1 (stereo not given)	n
CCOc1ccc2c(c1)C(C)CC(C)(C)N2 (stereo not given)	n
O=C(CC(C(=O)OC1CCCCC1)S(=O)(=O)O)OC1CCCCC1 (stereo not given)	n
CCCCCCC1CCC(=O)O1 (stereo not given)	n

---

assay: BSK_4H_Eotaxin3: BioMAP Diversity Plus: 4H Assay for Eotaxin 3 Biomarker Activity (AID 2283000); details: primary human endothelial cells (HUVEC); actives raise or lower the signal;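 on Outcome: CCL26 protein level quantified by ELISA in parallel with SRB cytotoxicity check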
Activity calls are given as the source filed them. Rule for the calls: active = hit-call score of the fitted dose curve at least 0.9, where 1 is the maximum; inactive = score below 0.9.
Outcome codes: 1 (active), -1 (inactive)

Compound	Class Name
O=C(C(=O)c1ccccc1)c1ccccc1	-1
CN(C)c1ccc(C(c2ccccc2)c2ccc(N(C)C)cc2)cc1	1
CC(C)CC(=O)CC(C)CC(C)C (stereo not drawn)	1
CCC(C)=NO	-1
COc1cc(CNC(=O)CCCC/C=C/C(C)C)ccc1O	-1
CCCCCCCCCCCCCCCCCC[N+](C)(C)C	1
Cc1cccnc1	-1
COC(=O)/C=C\C(=O)OC	-1

---

target: Nuclear receptor subfamily 1 group I member 2 (Homo sapiens) (UniProt O75469); test: ATG_PXR_TRANS: Attagene TRANS-FACTORIAL HepG2 Assay for human Pregnane X Receptor (PXR) (AID 2283008)
Sequence (O75469 whole entry, looked up): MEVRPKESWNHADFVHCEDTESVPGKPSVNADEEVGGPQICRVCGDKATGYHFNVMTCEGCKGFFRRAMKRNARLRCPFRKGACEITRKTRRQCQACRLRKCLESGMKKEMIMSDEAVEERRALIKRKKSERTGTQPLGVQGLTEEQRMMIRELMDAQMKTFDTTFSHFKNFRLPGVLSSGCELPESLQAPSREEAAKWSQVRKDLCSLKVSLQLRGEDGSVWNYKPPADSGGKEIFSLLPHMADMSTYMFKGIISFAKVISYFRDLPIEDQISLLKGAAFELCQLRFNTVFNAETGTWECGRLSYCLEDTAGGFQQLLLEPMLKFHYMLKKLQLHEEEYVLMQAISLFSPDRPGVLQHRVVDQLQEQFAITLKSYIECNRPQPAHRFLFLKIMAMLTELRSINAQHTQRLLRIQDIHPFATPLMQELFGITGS
Records with an inconclusive call do not appear. The source made the active and inactive calls. The calls were made as follows: active = hit-call score of the fitted dose curve at least 0.9, where 1 is the maximum; inconclusive = response in the unintended direction; inactive = score below 0.9.
Outcome codes: Yes (active), No (inactive)

Compound	Class Name
C=CC(C)(CCC=C(C)C)OC(=O)c1ccccc1 (centres undefined)	Yes
COC(OC)C(C)c1ccccc1 (centres undefined)	No
O=C(Oc1ccccc1)c1ccccc1	No
CCCCCCCCCCC1CO1 (centres undefined)	No
CN(C)CCC(c1ccc(Cl)cc1)c1ccccn1 (centres undefined)	No
CCOc1ccc2c(c1)C(C)CC(C)(C)N2 (centres undefined)	Yes
Sc1nc2ccccc2s1	No
C/C=C(\C)C(=O)OCC/C=C\CC	No
c1ccc(CNc2ncnc3nc[nH]c23)cc1	No
C[Si](C)(C)O[Si](C)(C)O[Si](C)(C)C	No
COC(=O)/C=C\C(=O)OC	No
Cc1cc(C)c(S(=O)(=O)O)cc1N=Nc1cc(S(=O)(=O)O)c2ccccc2c1O	No
CCCc1c(OCCCCc2nn[nH]n2)ccc(C(C)=O)c1O	No
[O-][n+]1ccc(Cl)cc1	No
